Cited source for all entries: PubChem BioAssay (NCI)

# Tested on: LOX IMVI melanoma
# Experimental protocol: NCI-60 one-dose screen, 48 h (100 = growth as untreated, 0 = no growth, -100 = all killed)
# Test conditions: 10 µM unless noted
# Description: Growth inhibition of the LOX IMVI human tumor cell line is measured as a screen for anti-cancer activity. Cells are grown in 96 well plates and exposed to the test compound for 48 hours. Compounds are tested at a single concentration, which is 10^-5 M for most compounds. The reported endpoint is percent growth (GI% or GIPRCNT), where numbers from 0 - 100% represent growth inhibition, and numbers from -100% - 0 represent cell death. For example, a value of 40 represents 60% growth inhibition. […]
Compounds without any hit were thinned out: in the full panel of roughly 83,000, 20% have a hit.
Decision: growth compared against 60%; not below it gives 1.0, below it gives 0.0.

Request: hey, is growth for this one >= 60%? COC(=O)c1nc(-c2ccccc2)oc1S(=O)(=O)n1nc(C)cc1N
Result: 1.0

Request: hey, is growth for this one >= 60%? CCCCCCC/C=C/[C@H]1O[C@]23C(=O)C[C@@]4(C[C@@H](OC5OC(CO)C(O)C(O)C5O)C[C@@H]4[C@H]2C=C1C)OC3=O (some centres undefined)
Result: 0.0

Request: hey, is growth for this one >= 60%? C=C(C)[C@@H]1CC[C@]2(C(=O)OCCOCCOCC[P+](c3ccccc3)(c3ccccc3)c3ccccc3)CC[C@]3(C)[C@H](CC[C@@H]4[C@@]5(C)CC[C@H](OC(C)=O)C(C)(C)[C@@H]5CC[C@]43C)[C@@H]12
Result: 0.0

Request: hey, is growth for this one >= 60%? NS(=O)(=O)c1ccc(-n2ncc(NC(=O)Nc3ccc(S(=O)(=O)Nc4nccs4)cc3)c2-c2ccccc2)cc1
Result: 1.0

Request: hey, is growth for this one >= 60%? Cc1nccc2c3ccc(OCc4cn(-c5ccccc5)nn4)cc3n(CCCc3ccccc3)c12
Result: 1.0

Request: hey, is growth for this one >= 60%? O=C(CN1N=C(c2ccc(F)cc2)CCC1=O)Nc1nccs1
Result: 1.0

Request: hey, is growth for this one >= 60%? C[C@H]1[C@H](C)CC[C@]2(C(=O)OCCCC[P+](c3ccccc3)(c3ccccc3)c3ccccc3)CC[C@]3(C)C(=CC[C@@H]4[C@@]5(C)CC[C@H](OC(=O)C(Cl)Cl)C(C)(C)[C@@H]5CC[C@]43C)[C@H]12
Result: 0.0

Request: hey, is growth for this one >= 60%? COc1ccc2nc3nc4ccc[nH]c4cc3c2c1
Result: 1.0

Request: hey, is growth for this one >= 60%? CCOC(=O)C(=Cc1c(-c2ccccc2)[nH]c2ccccc12)C(=O)OCC
Result: 0.0
